- Tested on: CCRF-CEM leukemia
- assayOverview: NCI tumour cell line growth inhibition, 48 h
Each entry below lists one item and its recorded TGI value.
measuredAttribute: TGI

molecule: COc1ccc(C(c2ccc(C(C)C)cc(=O)c2O)c2c(O)cc3oc(-c4ccccc4)cc(=O)c3c2O)cc1 (configuration not stated)
measuredAttribute: TGI
result: > 100 µM
//
molecule: COc1ccc(/C=C2\CSC/C(=C\c3ccc(OC)c(OC)c3OC)C2=O)c(OC)c1OC
measuredAttribute: TGI
result: > 100 µM
//
molecule: Cc1cc(NS(=O)(=O)c2ccc(NC(=O)c3cccc4c(N)c5ccccc5nc34)cc2)no1
measuredAttribute: TGI
result: 66.5 µM
//
molecule: Cc1cc2[nH]c3c(C#N)c(-c4ccccc4)c(N=Nc4cccc(C(F)(F)F)c4)c(=O)n3c2cc1C
measuredAttribute: TGI
result: > 100 µM
//
molecule: O=C(Oc1ccccc1)c1cc2cc(CCl)ccc2oc1=O
measuredAttribute: TGI
result: > 100 µM
//
molecule: CC(=O)c1ccc(Oc2ccc(/C(C)=N\N=C(N)N)cc2)cc1
measuredAttribute: TGI
result: 10.4 µM
//
molecule: O=C(O)C1C2CC3C(OC(=O)C31)C2Br (configuration not stated)
measuredAttribute: TGI
result: > 100 µM
